Give Ki for every item shown.
target: UniProtKB Q9H244; assay: Human P2Y12 recombinant cell membrane binding assay with 33P 2MeS-ADP (Assay 3); set-up: expressed in transfected cells; host or cells: HEK cells; conditions: HEK cell membranes expressing P2Y12; multiple lines = multiple runs
Sequence (Q9H244 whole entry): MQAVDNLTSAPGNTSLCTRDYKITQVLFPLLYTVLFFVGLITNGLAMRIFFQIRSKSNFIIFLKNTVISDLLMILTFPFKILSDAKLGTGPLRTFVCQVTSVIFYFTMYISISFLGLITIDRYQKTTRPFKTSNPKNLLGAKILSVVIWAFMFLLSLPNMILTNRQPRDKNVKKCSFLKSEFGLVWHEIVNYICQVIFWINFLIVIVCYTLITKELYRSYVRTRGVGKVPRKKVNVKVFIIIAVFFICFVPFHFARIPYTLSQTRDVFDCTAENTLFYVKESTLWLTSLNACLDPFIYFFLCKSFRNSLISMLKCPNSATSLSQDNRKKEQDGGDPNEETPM
One number for each entry, in nM.

Examples with answers:
> print(dat)
                  compound.structure.string  reading.unit  value.reported
1  CCOC(CCNc1nc(N2CCN(C(=O)c3ccc(-c4ccccc4)cc3)CC2)c2cc(CC)sc2n1)OCC            nM              81
2  CCc1cc2c(N3CCN(C(=O)c4ccc(-c5ccccc5)cc4)CC3)nc(NCCC(=O)NC(CO)CO)nc2s1            nM              17
3  CCc1cc2c(N3CCN(C(=O)c4cccc(-c5ccccc5)c4)CC3)nc(NC(CO)CO)nc2s1            nM              51
4  CCc1cc2c(N3CCN(C(=O)c4ccc(-c5ccccc5)cc4)CC3)nc(NCCC(=O)O)nc2s1            nM               8

# evaluate next
Problem: Dear colleague, I am looking for the recorded Ki of the following compound: `CCc1cc2c(N3CCN(C(=O)c4ccc(-c5ccccc5)cc4)CC3)nc(NC(CO)CO)nc2s1`
Solution: 12
